Listing of entries alongside the reported IC50.
target-under-test: human CXCR3 (N-delta 4) (Homo sapiens)
Construct: CD8 leader (N); Flag; expressed in transfected cells; membranes prepared
Sequence (P49682 5-368 limits assumed): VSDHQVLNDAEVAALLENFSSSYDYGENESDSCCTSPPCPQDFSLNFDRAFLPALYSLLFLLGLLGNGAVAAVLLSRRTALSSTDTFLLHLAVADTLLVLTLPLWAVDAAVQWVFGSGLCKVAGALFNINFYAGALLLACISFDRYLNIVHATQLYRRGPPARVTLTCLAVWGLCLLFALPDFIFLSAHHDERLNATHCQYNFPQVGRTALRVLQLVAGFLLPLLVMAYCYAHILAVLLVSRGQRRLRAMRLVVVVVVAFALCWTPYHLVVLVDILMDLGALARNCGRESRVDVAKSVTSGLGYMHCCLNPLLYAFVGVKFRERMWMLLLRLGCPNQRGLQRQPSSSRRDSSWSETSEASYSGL
experiment-notes: Human CXCR3 (N-delta 4) Scintillation Proximity Assay (SPA), [125I] IP-10 binding to Ba/F3-hCXCR3 membranes
test-context: IC50 rating, Table 1; read-out: IC50
Excerpt: The inventive compounds can readily be evaluated to determine activity at the CXCR3 receptors by known methods, such as, for example, development of a human CXCR3 (N-delta 4) Binding Assay. Cloning and Expression of Human CXCR3 (N-delta 4): The DNA encoding human CXCR3 was cloned by PCR using human genomic DNA (Promega, Madison, Wis.) as a template. […]
quantity-name: IC50

>>> value("CC[C@H]1CN(c2nc(N)c(C(=O)NCCO)nc2Cl)CCN1C1CCN(C(=O)c2ccc(Cl)cc2OCCNC(=O)OC(C)(C)C)CC1")
"< 25 nM"
>>> value("CC[C@H]1CN(c2ncc(C(N)=O)nc2C)CCN1C1CCN(C(C(=O)OC)c2ccc(Cl)cc2)CC1 (some centres unmarked)")
"< 25 nM"
>>> value("CC[C@H]1CN(c2nc(N)c(C(=O)NCCO)nc2Cl)CCN1C1CCN(C(=O)c2cc(F)c(F)cc2NC(=O)c2cc(F)c(F)cc2N)CC1")
"> 100 nM"
>>> value("CC[C@H]1CN(c2ncc(C(N)=O)nc2C)[C@H](C)CN1C1CCN(C(=O)c2ccc(Cl)cc2)CC1")
"< 25 nM"
>>> value("CC[C@H]1CN(c2nc(N)c(C(=O)NCCN/C(N)=N/C#N)nc2Cl)CCN1C1CCN(C(=O)c2ccc(Cl)cc2)CC1")
"> 100 nM"
>>> value("CC[C@H]1CN(c2nc(N)c(C(=O)N[C@H]3CCOC3=O)nc2Cl)CCN1C1CCN(Cc2ccc(Cl)cc2)CC1")
"< 25 nM"
>>> value("CC[C@H]1CN(c2nc(N)c(C(=O)OC)nc2Cl)CCN1C1CCN(Cc2ccc(Cl)cc2CCN)CC1")
"< 25 nM"
>>> value("CC[C@H]1CN(c2nc(N)c(C(=O)NCCO)nc2Cl)CCN1C1CCN(Cc2ccc(Cl)cc2OCCN2CCCC2=O)CC1")
"> 100 nM"
>>> value("CC[C@H]1CN(c2ncc(C(=O)NC)nc2C(F)(F)F)CCN1C1CCN(C(=O)c2ccc(Cl)cc2)CC1")
"< 25 nM"
>>> value("CC[C@H]1CN(c2nc(N)c(C(=O)NCCO)nc2Cl)CCN1C1CCN([C@@H](C(=O)OC)c2ccc(F)c(F)c2)CC1")
"25 to 100 nM"
>>> value("CC[C@H]1CN(c2nc(N)c(C(=O)NC)nc2Cl)CCN1C1CCN([C@@H](CO)c2ccc(Cl)cc2)CC1")
"< 25 nM"
>>> value("CC[C@H]1CN(c2ncc(C(N)=O)nc2C)CCN1C1CCN(C(=O)c2ccc(Cl)cc2N)CC1")
"< 25 nM"
>>> value("CC[C@H]1CN(c2nc(N)c(C(N)=O)nc2Cl)CCN1C1CCN(Cc2ccc(Cl)cc2C(C)(C)CO)CC1")
"< 25 nM"
>>> value("CC[C@H]1CN(c2nc(N)c(C(=O)NC)nc2Cl)CCN1C1(C)CCN(Cc2ccc(Cl)cc2)CC1")
"> 100 nM"
